- compound: "N#CCc1nc2scc(C3CC3)c2c(=O)[nH]1"
  melting point: "284 to 286 °C"
- compound: "CC1=NOC(=O)C1CCC(=O)O (configuration not stated)"
  melting point: "139 to 141 °C"
- compound: "O=C1CCOc2c(Cl)cccc21"
  melting point: "62 to 64 °C"
- compound: "CN1CCN(S(N)(=O)=O)C(c2ccccc2)C1 (configuration not stated)"
  melting point: "109 to 111 °C"
- compound: "CC1CCN(C(=O)c2ccc(N)cc2)CC1"
  melting point: "118 to 120 °C"
- compound: "O=S1(=O)CCCN1c1ccccc1Br"
  melting point: "115 to 117 °C"
- compound: "N#CCOc1ccccc1C=O"
  melting point: "79 to 81 °C"
